Would you mind telling me the reported DC50 of each entry?
Molecular target: IKZF2 (Homo sapiens, UniProt Q96SW2+Q9UKS7)
Experiment: HEK293 HiBiT in vitro degradation of IKZF2
Format: cell-based
Parameters: expressed in transfected cells
Details: HEK293 HiBiT, 18-24 hr incubation, normalized to DMSO control; read-out: IKZF2 EC50
Sequence (Q9UKS7 1-500 isoform Q9UKS7-2): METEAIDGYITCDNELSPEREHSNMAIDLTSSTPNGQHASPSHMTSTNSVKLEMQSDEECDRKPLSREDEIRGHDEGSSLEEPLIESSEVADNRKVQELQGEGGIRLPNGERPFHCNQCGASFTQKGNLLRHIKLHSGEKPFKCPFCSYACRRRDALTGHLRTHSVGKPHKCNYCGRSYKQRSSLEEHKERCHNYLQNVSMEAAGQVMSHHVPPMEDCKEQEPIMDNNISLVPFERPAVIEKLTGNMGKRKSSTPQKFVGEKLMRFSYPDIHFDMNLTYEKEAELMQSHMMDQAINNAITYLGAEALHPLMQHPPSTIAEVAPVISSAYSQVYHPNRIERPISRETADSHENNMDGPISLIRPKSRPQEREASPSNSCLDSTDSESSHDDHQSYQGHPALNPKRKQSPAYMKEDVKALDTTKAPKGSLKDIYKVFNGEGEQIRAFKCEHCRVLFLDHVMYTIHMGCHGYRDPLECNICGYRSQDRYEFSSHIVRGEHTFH
Sequence (Q96SW2 whole entry): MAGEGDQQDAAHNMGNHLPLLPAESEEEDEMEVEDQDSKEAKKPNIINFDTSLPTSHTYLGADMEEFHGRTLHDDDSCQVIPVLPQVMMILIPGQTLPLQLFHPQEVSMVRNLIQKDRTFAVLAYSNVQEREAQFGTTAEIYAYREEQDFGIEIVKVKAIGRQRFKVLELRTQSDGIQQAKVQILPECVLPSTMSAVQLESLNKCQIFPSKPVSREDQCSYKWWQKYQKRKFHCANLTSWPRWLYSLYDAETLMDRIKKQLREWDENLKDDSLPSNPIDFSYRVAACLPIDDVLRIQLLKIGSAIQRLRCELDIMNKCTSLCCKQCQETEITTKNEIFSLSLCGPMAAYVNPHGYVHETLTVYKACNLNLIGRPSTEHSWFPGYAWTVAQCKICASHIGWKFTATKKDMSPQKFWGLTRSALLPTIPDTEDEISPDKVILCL
Sequence (Q16531 whole entry partner): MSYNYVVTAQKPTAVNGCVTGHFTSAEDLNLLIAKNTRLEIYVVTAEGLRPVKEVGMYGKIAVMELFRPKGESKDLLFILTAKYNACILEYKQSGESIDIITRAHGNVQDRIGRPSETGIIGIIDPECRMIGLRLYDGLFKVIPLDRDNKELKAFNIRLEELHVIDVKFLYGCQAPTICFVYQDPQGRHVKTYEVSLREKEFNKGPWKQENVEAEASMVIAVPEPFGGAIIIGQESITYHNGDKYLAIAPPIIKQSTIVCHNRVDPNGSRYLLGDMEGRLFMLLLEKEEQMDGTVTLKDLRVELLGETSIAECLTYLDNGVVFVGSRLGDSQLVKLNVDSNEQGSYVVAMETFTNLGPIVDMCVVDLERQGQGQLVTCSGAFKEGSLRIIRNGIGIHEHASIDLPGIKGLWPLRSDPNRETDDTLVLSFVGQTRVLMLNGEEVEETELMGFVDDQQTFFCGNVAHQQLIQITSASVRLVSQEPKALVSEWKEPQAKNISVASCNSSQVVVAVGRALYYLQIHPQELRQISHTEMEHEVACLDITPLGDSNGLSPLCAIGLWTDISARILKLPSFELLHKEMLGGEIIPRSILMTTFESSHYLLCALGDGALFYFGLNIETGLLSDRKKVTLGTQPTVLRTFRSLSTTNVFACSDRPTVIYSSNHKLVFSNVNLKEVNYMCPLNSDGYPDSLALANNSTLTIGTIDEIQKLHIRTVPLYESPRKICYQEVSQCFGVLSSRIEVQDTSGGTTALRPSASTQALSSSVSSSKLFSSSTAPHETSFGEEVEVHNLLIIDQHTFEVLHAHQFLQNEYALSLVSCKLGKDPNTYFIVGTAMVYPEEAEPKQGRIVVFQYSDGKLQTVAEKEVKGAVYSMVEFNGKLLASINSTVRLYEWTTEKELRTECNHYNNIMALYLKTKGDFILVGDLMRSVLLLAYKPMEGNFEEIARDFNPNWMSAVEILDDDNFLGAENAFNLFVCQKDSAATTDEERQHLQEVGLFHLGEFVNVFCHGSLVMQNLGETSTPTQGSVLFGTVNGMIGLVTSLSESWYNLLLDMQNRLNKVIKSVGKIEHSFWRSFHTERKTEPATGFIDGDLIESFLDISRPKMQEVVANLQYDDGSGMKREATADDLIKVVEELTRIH
The figure you give is taken to be in nM; do not add the unit.

input: Please report the recorded DC50 for O=C1CCC(N2Cc3c(ccc(C[C@H]4OCCC[C@@H]4NC4CCCCC4)c3F)C2=O)C(=O)N1 (stereo partly shown) [Example 181] .
output: 6

input: And the next one, O=C1CCC(N2Cc3cc(C[C@H]4CCCC[C@@H]4NC4CCC5(CC4)CC5(F)F)ccc3C2=O)C(=O)N1 (single isomer, unassigned) [Example 272] ?
output: 1

input: And the next one, CC(N[C@H]1CCCO[C@@H]1Cc1ccc2c(c1F)CN(C1CCC(=O)NC1=O)C2=O)C1COC1 (stereo partly shown) [Example 318] ?
output: 20

input: And the next one, O=C1CCC(N2Cc3cc(C[C@H]4CC[C@@H](F)C[C@@H]4NC4CCCCC4)ccc3C2=O)C(=O)N1 (stereo partly shown) [Example 355] ?
output: 5

====

Molecular target: IKZF2 (Homo sapiens, UniProt Q96SW2+Q9UKS7)
Assay: HEK293 HiBiT in vitro degradation of IKZF2
Assay type: cell-based
Design: expressed in transfected cells
Conditions: HEK293, HEK293 HiBiT; maximum degradation at the highest concentration tested
ENDPOINT_NAME: Dmax (%)
The figure you give is taken to be in %; do not add the unit.

input: Please report the recorded Dmax for O=C1CC[C@@H](N2Cc3c(ccc(C[C@H]4OCCC[C@@H]4N[C@H]4CC[C@H](C(F)F)CC4)c3F)C2=O)C(=O)N1 (single isomer, unassigned) .
output: 96

input: And the next one, O=C1CC[C@@H](N2Cc3c(ccc(C[C@H]4OCCC[C@@H]4NC4CCC(F)(F)CC4)c3F)C2=O)C(=O)N1 (single isomer, unassigned) ?
output: 94

input: And the next one, CC(C)N[C@H]1CCCC[C@@H]1Cc1ccc2c(c1)CN(C1CCC(=O)NC1=O)C2=O (stereo partly drawn) ?
output: 99

input: And the next one, [2H]C1(N[C@H]2CCCC[C@@H]2Cc2ccc3c(c2)CN(C2CCC(=O)NC2=O)C3=O)CCC(F)(F)CC1 (stereo partly drawn) ?
output: 98

input: And the next one, O=C1CCC(N2Cc3cc(O[C@H]4CCCC[C@@H]4NC4CCC(F)(F)CC4)ccc3C2=O)C(=O)N1 (stereo partly drawn) ?
output: 98

input: And the next one, O=C1CCC(N2Cc3cc(C[C@H]4CCCC[C@@H]4NC4CCC45COC5)ccc3C2=O)C(=O)N1 (single isomer, unassigned) ?
output: 96

====

Would you mind telling me the reported Dmax of each entry?
Biological target: IKZF2 (Homo sapiens, UniProt Q96SW2+Q9UKS7)
Test: HEK293 HiBiT in vitro degradation of IKZF2
Format: cell-based
Parameters: expressed in transfected cells
Settings: HEK293, HEK293 HiBiT; maximum degradation at the highest concentration tested
The figure you give is taken to be in %; do not add the unit.

input: Please report the recorded Dmax for O=C1CCC(N2Cc3cc(C[C@H]4C[C@H](F)CC[C@@H]4NC4CCC(F)(F)CC4)ccc3C2=O)C(=O)N1 (stereo partly shown) [Example 169] .
output: 97

input: And the next one, CN(C1CCC(F)(F)CC1)[C@H]1CCCC[C@@H]1Cc1ccc2c(c1F)CN(C1CCC(=O)NC1=O)C2=O (stereo partly shown) [Example 124] ?
output: 94

input: And the next one, CC(N[C@H]1CCCC[C@@H]1Cc1ccc2c(c1)CN(C1CCC(=O)NC1=O)C2=O)C1CCOCC1 (stereo partly shown) [Example 200] ?
output: 96

input: And the next one, O=C1CCC(N2Cc3c(ccc(C[C@H]4OCCC[C@@H]4NC4CC5(CCC5)C4)c3F)C2=O)C(=O)N1 (stereo partly shown) [Example 157] ?
output: 92

====

Target: IKZF1 (Homo sapiens, UniProt Q13422+Q96SW2)
Construct: expressed in transfected cells
Sequence (Q13422 whole entry): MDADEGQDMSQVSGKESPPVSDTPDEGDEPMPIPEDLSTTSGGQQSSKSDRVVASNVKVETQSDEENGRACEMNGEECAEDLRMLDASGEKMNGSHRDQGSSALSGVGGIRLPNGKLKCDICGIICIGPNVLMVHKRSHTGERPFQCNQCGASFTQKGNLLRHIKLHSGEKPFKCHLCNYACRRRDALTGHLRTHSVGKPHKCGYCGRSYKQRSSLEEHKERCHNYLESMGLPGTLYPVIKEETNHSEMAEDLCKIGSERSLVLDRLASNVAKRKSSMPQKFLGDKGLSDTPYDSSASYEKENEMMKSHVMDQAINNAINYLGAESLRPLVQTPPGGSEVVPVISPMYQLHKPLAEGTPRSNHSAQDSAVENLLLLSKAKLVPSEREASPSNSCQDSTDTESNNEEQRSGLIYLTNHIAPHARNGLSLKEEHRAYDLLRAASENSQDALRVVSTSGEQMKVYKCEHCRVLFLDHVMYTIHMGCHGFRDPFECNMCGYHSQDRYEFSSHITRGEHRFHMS
Sequence (Q96SW2 whole entry): as the sequence (Q96SW2 whole entry) above
Sequence (Q16531 whole entry partner): as the sequence (Q16531 whole entry partner) above
Assay: HEK293 HiBiT in vitro degradation of IKZF1
Assay type: cell-based
Conditions: HEK293 HiBiT, 18-24 hr incubation, normalized to DMSO control; read-out: IKZF1 EC50
ENDPOINT_NAME: DC50

input: Please report the recorded DC50 for O=C1CCC(N2Cc3cc(C[C@H]4OCCC[C@@H]4NC4CCC(F)CC4)ccc3C2=O)C(=O)N1 (single isomer, unassigned) [Example 367] .
output: > 1000 nM

input: And the next one, COCC1CCC(N[C@H]2CCCO[C@@H]2Cc2ccc3c(c2F)CN(C2CCC(=O)NC2=O)C3=O)CC1 (single isomer, unassigned) [Example 264] ?
output: > 1000 nM

input: And the next one, O=C1CCC(N2Cc3c(ccc(C[C@H]4CCCC[C@@H]4NCC4CCC(F)(F)CC4)c3F)C2=O)C(=O)N1 (stereo partly shown) ?
output: 68 nM

input: And the next one, O=C1CCC(N2Cc3cc(C[C@H]4CCCC[C@@H]4N4CC5(CN(Cc6ccccc6Cl)C5)C4)ccc3C2=O)C(=O)N1 (stereo partly shown) ?
output: 51 nM

input: And the next one, O=C1CCC(N2Cc3cc(C[C@H]4CCCC[C@@H]4NC4CCCOC4)ccc3C2=O)C(=O)N1 (single isomer, unassigned) [Example 260] ?
output: > 1000 nM

input: And the next one, [2H]C1(N[C@H]2CCCC[C@@H]2Cc2ccc3c(c2)CN(C2CCC(=O)NC2=O)C3=O)CCC(F)(F)CC1 (stereo partly shown) ?
output: 46 nM

input: And the next one, O=C1CCC(N2Cc3c(ccc(C[C@H]4OCCC[C@@H]4NC4CCC(F)(F)CC4)c3F)C2=O)C(=O)N1 (stereo partly shown) ?
output: > 10000 nM

input: And the next one, O=C1CCC(N2Cc3cc(C[C@H]4CCCC[C@@H]4NCc4cc(Cl)cc(Cl)c4)ccc3C2=O)C(=O)N1 (stereo partly shown) ?
output: > 1000 nM

input: And the next one, CC(N[C@H]1CCCC[C@@H]1Cc1ccc2c(c1)CN(C1CCC(=O)NC1=O)C2=O)C1CC(F)(F)C1 (single isomer, unassigned) [Example 136] ?
output: > 1000 nM

input: And the next one, CC1(C)CC(N[C@H]2CCCC[C@@H]2Cc2ccc3c(c2)CN(C2CCC(=O)NC2=O)C3=O)CCO1 (stereo partly shown) [Example 109] ?
output: 103 nM

input: And the next one, O=C1CC[C@H](N2Cc3c(ccc(C[C@H]4CCCC[C@@H]4NC4CCC(F)(F)CC4)c3F)C2=O)C(=O)N1 (single isomer, unassigned) ?
output: 13 nM

input: And the next one, CC(N[C@H]1CCCC[C@@H]1Cc1ccc2c(c1)CN(C1CCC(=O)NC1=O)C2=O)C1(C(F)F)CC1 (stereo partly shown) [Example 311] ?
output: > 1000 nM

input: And the next one, CCC(C)N[C@H]1CCCO[C@@H]1Cc1ccc2c(c1F)CN(C1CCC(=O)NC1=O)C2=O (single isomer, unassigned) [Example 292] ?
output: > 1000 nM

====

Molecular target: IKZF2 (Homo sapiens, UniProt Q96SW2+Q9UKS7)
Test: Jurkat IKZF2 degradation (flow cytometry)
Type: cell-based
Set-up: endogenous in cells
Conditions: Jurkat cells, overnight incubation; maximum degradation at the highest concentration tested
Sequence (Q9UKS7 whole entry): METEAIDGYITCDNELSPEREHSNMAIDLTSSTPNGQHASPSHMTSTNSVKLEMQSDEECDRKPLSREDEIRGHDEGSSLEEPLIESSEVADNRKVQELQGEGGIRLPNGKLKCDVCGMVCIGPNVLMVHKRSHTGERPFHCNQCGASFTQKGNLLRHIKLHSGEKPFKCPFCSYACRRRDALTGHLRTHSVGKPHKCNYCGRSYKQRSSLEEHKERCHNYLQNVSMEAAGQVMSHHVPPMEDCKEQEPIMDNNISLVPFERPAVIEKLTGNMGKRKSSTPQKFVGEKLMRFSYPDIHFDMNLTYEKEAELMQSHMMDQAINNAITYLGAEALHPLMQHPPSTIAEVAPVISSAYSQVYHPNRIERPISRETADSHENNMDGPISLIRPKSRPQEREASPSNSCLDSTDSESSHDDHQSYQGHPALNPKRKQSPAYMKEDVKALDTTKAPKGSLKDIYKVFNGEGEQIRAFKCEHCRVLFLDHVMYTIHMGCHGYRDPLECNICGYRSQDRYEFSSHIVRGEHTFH
Sequence (Q96SW2 whole entry): as the sequence (Q96SW2 whole entry) above
Sequence (Q16531 whole entry partner): as the sequence (Q16531 whole entry partner) above
Would you mind telling me the reported Dmax of each entry?
The figure you give is taken to be in %; do not add the unit.

input: Please report the recorded Dmax for O=C1CCC(N2Cc3c(ccc(C[C@H]4OCCC[C@@H]4NC4CCC(C(F)F)CC4)c3F)C2=O)C(=O)N1 (single isomer, unassigned) .
output: 90

input: And the next one, O=C1CC[C@H](N2Cc3c(ccc(C[C@H]4OCCC[C@@H]4N[C@H]4CC[C@H](F)CC4)c3F)C2=O)C(=O)N1 ?
output: 90

input: And the next one, CC(N[C@H]1CCCC[C@@H]1Cc1ccc2c(c1F)CN(C1CCC(=O)NC1=O)C2=O)C1CCOCC1 (single isomer, unassigned) ?
output: 96

input: And the next one, CCN[C@H]1CCCC[C@@H]1Oc1ccc2c(c1)CN(C1CCC(=O)NC1=O)C2=O (some centres unmarked) ?
output: 83

input: And the next one, O=C1CC[C@H](N2Cc3cc(C[C@H]4CCCC[C@@H]4NC4CCC(F)(F)CC4)ccc3C2=O)C(=O)N1 (single isomer, unassigned) ?
output: 96

input: And the next one, O=C1CCC(N2Cc3cc(C4CCC(Cc5ccccc5)CC4)ccc3C2=O)C(=O)N1 (centres unmarked) ?
output: 61

input: And the next one, O=C1CCC(N2Cc3c(ccc(C[C@H]4OCCC[C@@H]4NC4CCC(F)(F)CC4)c3F)C2=O)C(=O)N1 (some centres unmarked) ?
output: 88

input: And the next one, O=C1CCC(N2Cc3c(ccc(C[C@H]4CCCC[C@@H]4NC4CCC(F)(F)CC4)c3F)C2=O)C(=O)N1 (some centres unmarked) ?
output: 97

Hey, just so you know, these numbers are from patent US11897862B2.
